pEC50 by entry:
# TARGET_OR_SYSTEM: 5-HT2A receptor (Homo sapiens, UniProt P28223)
# Construct: host or cells: HEK293
# Sequence (P28223 whole entry): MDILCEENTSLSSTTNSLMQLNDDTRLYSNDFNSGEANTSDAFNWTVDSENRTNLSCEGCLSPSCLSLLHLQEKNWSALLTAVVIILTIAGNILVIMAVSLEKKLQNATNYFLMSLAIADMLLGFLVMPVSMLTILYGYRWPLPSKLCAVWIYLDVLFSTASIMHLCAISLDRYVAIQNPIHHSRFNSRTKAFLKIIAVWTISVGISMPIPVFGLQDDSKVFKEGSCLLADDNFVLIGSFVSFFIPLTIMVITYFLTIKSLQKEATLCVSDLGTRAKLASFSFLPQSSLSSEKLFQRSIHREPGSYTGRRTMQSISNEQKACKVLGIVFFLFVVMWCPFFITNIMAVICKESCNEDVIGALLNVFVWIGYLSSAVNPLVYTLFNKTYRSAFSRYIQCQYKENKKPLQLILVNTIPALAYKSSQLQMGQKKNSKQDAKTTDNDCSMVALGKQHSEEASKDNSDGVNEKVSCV
# EXPERIMENTAL_DETAILS: cell-based
# Assay type: cell-based
# EXPERIMENTAL_CONTEXT: Ca^2+ flux, agonist; read-out: 5-HT2A EC50
FYI, pEC50 means -log10 of a concentration in mol per litre.

Some compounds with recorded pEC50:
# SAMPLE_SMILES, TARGET_OR_SYSTEM, pEC50
rows = [
    ("CCN(CC)C(=O)[C@@H]1C=C2c3cccc4[nH]cc(c34)C[C@H]2N(CCc2ccc(OC)cc2)C1", "5-HT2A receptor (Homo sapiens, UniProt P28223)", 6.21),
    ("C[C@H]1C[C@H](C)N1C(=O)[C@@H]1C=C2c3cccc4[nH]cc(c34)C[C@H]2N(CCCF)C1", "5-HT2A receptor (Homo sapiens, UniProt P28223)", 7.81),
    ("CCCN1C[C@H](C(=O)N[C@H](C)CC)C=C2c3cccc4[nH]cc(c34)C[C@H]21", "5-HT2A receptor (Homo sapiens, UniProt P28223)", 8.80),
    ("CCCN1C[C@H](C(=O)N2[C@@H](C)C[C@@H]2C)C=C2c3cccc4[nH]c(Br)c(c34)C[C@H]21", "5-HT2A receptor (Homo sapiens, UniProt P28223)", 6.93),
    ("CN1C[C@H](C(=O)N(CCF)CCF)C=C2c3cccc4[nH]cc(c34)C[C@H]21", "5-HT2A receptor (Homo sapiens, UniProt P28223)", 7.93),
    ("CN1C[C@H](C(=O)N2CCCC2)C=C2c3cccc4[nH]cc(c34)C[C@H]21", "5-HT2A receptor (Homo sapiens, UniProt P28223)", 7.68),
    ("CC[C@@H](C)NC(=O)[C@@H]1C=C2c3cccc4[nH]cc(c34)C[C@H]2N(C)C1", "5-HT2A receptor (Homo sapiens, UniProt P28223)", 7.99),
]

Query :: Give its pEC50 value. Item: CCN(CC)C(=O)[C@@H]1C=C2c3cccc4[nH]cc(c34)C[C@H]2N(Cc2ccccc2OC)C1
Result :: 6.19
